biological target: UniProtKB P08588; test: Displacement of radiolabeled iodocyanopindolol from beta1 adrenoceptor
Sequence (P08588 whole entry): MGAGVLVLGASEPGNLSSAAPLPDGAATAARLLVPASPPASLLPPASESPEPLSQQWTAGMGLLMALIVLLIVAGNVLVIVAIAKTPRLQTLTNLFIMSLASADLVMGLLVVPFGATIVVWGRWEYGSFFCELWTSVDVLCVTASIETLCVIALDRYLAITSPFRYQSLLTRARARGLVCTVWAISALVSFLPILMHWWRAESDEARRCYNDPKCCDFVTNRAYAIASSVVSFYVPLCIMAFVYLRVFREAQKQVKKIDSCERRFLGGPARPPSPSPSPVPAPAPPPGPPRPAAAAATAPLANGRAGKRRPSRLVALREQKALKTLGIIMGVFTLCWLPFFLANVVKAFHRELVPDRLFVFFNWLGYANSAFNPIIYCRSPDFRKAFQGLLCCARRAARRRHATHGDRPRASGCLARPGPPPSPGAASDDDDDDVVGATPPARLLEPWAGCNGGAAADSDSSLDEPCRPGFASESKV
Readout type: IC50 (nM)

// known answers, use as guide
CC(CNCc1ccc(CCNC[C@H](O)c2ccc(O)c3[nH]c(=O)sc23)cc1)c1ccccc1 (some centres undefined) : 501
O=c1[nH]c2c(O)ccc([C@@H](O)CNCCc3cccc(CNCCc4ccccn4)c3)c2s1 : 158
O=c1[nH]c2c(O)ccc([C@@H](O)CNCCc3cccc(CNCCc4ccccc4F)c3)c2s1 : 63.1
COc1ccccc1CN(C)Cc1cccc(CCNC[C@H](O)c2ccc(O)c3[nH]c(=O)sc23)c1 : 200
COc1ccccc1CNCCc1cccc(CCNC[C@H](O)c2ccc(O)c3[nH]c(=O)sc23)c1 : 63.1

I. COc1ccccc1CNCc1cccc(CCNC[C@H](O)c2ccc(O)c3[nH]c(=O)sc23)c1
II. CC(Cc1cccc(CNCCc2c(Cl)cccc2Cl)c1)NC[C@H](O)c1ccc(O)c2[nH]c(=O)sc12 (some centres undefined)
Returns the identifier with the smallest measured IC50 among I and II . // respond with label for picked entry
II
(II: 20 nM, I: 50.1 nM)

P. CCOc1ccccc1CNCc1cccc(CCNC[C@H](O)c2ccc(O)c3[nH]c(=O)sc23)c1
Q. O=c1[nH]c2c(O)ccc([C@@H](O)CNCCc3cccc(CNCCCc4ccccn4)c3)c2s1
IC50 comparison. Which is larger, P or Q ? // respond with label for picked entry
P
